# target under test: human TRPV3 (Homo sapiens)
# method summary: Calcium flux assay (FLIPR TETRA), recombinant HEK293 cells expressing TRPV3, 2-APB response
# condition label: 2-APB at its EC80
Listed here are compounds together with their documented IC50.

* COc1ncnc(OC)c1C(=O)Nc1nc(C(F)(F)F)c(-c2cccc(F)c2C#N)s1 | < 50 nM
* COc1ncnc(OC)c1C(=O)Nc1nc(C(F)(F)F)c(-c2ccc(N3CCOCC3)nc2)s1 | 100 to 500 nM

Provide one value: measured IC50 of `COCc1sc(NC(=O)c2c(OC)ncnc2OC)nc1-c1ccc(C(F)(F)F)cn1`
< 50 nM

Assign IC50 to the following record: `COc1ncnc(OC)c1C(=O)Nc1nc(C(F)(F)F)c(-c2cncc(OC(C)C)c2)s1`
< 50 nM

Complete the entry with IC50 for `COc1ncnc(OC)c1C(=O)Nc1nc(C(F)(F)F)c(-c2cccc(C#N)c2)s1`
< 50 nM

Annotate the compound `COc1ncnc(OC)c1C(=O)Nc1nc(C(F)(F)F)c(C2=COCCC2)s1` with its measured IC50.
50 to 100 nM

Kindly indicate its recorded IC50. Item: `COc1ncnc(OC)c1C(=O)Nc1nc(C(F)(F)F)cs1`
100 to 500 nM

Answer with the recorded IC50 for the compound listed here: `CCn1nccc1-c1sc(NC(=O)c2c(OC)ncnc2OC)nc1C(F)(F)F`
100 to 500 nM

---

# target under test: human TRPV3 (Homo sapiens)
# Sequence (Q8NET8 1-790): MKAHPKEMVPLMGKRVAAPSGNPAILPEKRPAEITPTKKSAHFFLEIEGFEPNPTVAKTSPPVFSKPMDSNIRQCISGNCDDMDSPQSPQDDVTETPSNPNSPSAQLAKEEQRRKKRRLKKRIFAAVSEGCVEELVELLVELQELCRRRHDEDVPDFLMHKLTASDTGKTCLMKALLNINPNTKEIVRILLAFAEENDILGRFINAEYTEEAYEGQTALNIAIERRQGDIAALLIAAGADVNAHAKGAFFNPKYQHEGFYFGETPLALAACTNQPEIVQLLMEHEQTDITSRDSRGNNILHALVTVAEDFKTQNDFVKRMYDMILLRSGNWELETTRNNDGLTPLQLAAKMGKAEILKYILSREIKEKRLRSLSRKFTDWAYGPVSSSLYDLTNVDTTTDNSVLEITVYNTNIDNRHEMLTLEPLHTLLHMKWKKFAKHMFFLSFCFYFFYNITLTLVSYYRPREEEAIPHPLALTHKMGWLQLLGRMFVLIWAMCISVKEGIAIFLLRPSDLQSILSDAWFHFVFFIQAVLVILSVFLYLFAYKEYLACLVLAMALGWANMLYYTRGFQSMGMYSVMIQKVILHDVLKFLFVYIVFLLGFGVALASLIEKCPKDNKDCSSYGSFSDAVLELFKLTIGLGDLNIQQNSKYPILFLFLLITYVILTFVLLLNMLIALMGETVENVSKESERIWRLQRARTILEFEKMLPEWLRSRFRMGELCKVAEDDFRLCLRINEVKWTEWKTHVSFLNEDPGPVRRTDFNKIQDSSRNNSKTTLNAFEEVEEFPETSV
# method summary: Calcium flux assay (FLIPR TETRA), recombinant HEK293 cells expressing TRPV3, 2-APB response
# condition label: 2-APB at its EC80
The entries below come with measured IC50 values attached.

Some compounds with recorded IC50:
- COc1ncnc(OC)c1C(=O)Nc1nc(C(F)(F)F)c(I)s1: < 50 nM
- COc1ncnc(OC)c1C(=O)Nc1nc(C(F)(F)F)c(CCO)s1: > 1000 nM

Fill in reported IC50 for this entry: `COc1ncnc(OC)c1C(=O)Nc1nc(CC(C)(C)C)cs1`
50 to 100 nM

Read the entry `CCOc1ncnc(OC)c1C(=O)Nc1nc(C(F)(F)F)c(CC)s1` and write its reported IC50.
< 50 nM

Give a short answer stating reported IC50 for `COc1ncnc(OC)c1C(=O)Nc1nc(C(F)(F)F)c(-c2cn(C)nc2C(C)C)s1` .
50 to 100 nM

Supply IC50 value. Item: COc1ncnc(OC)c1C(=O)Nc1nc(C(F)(F)F)c([C@@H]2CCCOC2)s1 (single isomer, unassigned)
100 to 500 nM

Quick one: give measured IC50 for `COc1ncnc(OC)c1C(=O)Nc1nc(-c2ccc(C(F)(F)F)cn2)c(CN2CCOCC2)s1`
< 50 nM

Identify IC50 associated with the compound `COc1ncnc(OC)c1C(=O)Nc1nc(C(F)(F)F)c(CN2CC[C@@H](OC)C2)s1`
500 to 1000 nM

---

Parameter pIC50: see the listing below.
# target under test: human TRPV3 (Homo sapiens)
# method summary: Calcium flux assay (FLIPR TETRA), recombinant HEK293 cells expressing TRPV3, 2-APB response
# condition label: 2-APB at its EC80
pIC50: −log10 of the molar value.

* COCCN(C)S(=O)(=O)c1cccc(-c2sc(NC(=O)c3c(OC)ncnc3OC)nc2C(F)(F)F)c1 | > 7.30

Give the value of pIC50 reported for the following: COc1ncnc(OC)c1C(=O)Nc1nc(-c2ccc(C(F)(F)F)cn2)c(C(C)O)s1 (single isomer, unassigned) [Example 83]
6.30 to 7.00

Indicate its recorded pIC50; the compound in question is `COc1ncnc(OC)c1C(=O)Nc1nc(-c2ccc(F)cn2)cs1`
6.00 to 6.30

Tell me pIC50 reported for `COc1ncnc(OC)c1C(=O)Nc1nc(C(F)(F)F)c(-c2ccnc(C#N)c2)s1`
7.00 to 7.30

Give the reported value of pIC50 for this record: `COc1ncnc(OC)c1C(=O)Nc1nc(-c2ccc(C(F)(F)F)cn2)c(/C(C)=N/O)s1`
7.00 to 7.30

Supply recorded pIC50 for `COc1ncnc(OC)c1C(=O)Nc1nc(C(F)(F)F)c(C(C)(C)O)s1` here.
< 6.00

Give pIC50 for `COc1ncnc(OC)c1C(=O)Nc1nc(C(F)(F)F)c(C)s1`
7.00 to 7.30

Find the measured pIC50 of `COc1ncnc(OC)c1C(=O)Nc1nc(C(F)(F)F)c(-c2cccc(C3(C#N)COC3)n2)s1` and report it.
7.00 to 7.30

Supply reported pIC50 belonging to this compound: `COc1ncnc(OC)c1C(=O)Nc1nc(C(F)(F)F)c(-c2cnc(N3CCOCC3)nc2)s1`
7.00 to 7.30

Tell me pIC50 reported for `COc1ncnc(OC)c1C(=O)Nc1nc(C(F)(F)F)c(C#CC(C)(C)O)s1`
7.00 to 7.30

Quick one: give measured pIC50 for `COCc1sc(NC(=O)c2c(OC)ncnc2OC)nc1C(F)(F)F`
6.30 to 7.00

Determine its reported pIC50: `COc1ncnc(OC)c1C(=O)Nc1nc(C(F)(F)F)c(C(C)=O)s1`
6.30 to 7.00

Determine its reported pIC50: `COc1ncnc(OC)c1C(=O)Nc1nc(C(C)(C)C)c(Br)s1`
> 7.30

Please indicate pIC50 recorded for `COc1ncnc(OC)c1C(=O)Nc1nc(/C=C/C2CC2)cs1`
< 6.00

Name the recorded pIC50 of the compound listed here: `COc1ncnc(OC)c1C(=O)Nc1nc(C(F)(F)F)c(Cl)s1`
> 7.30

---

Catalogue of molecules with associated IC50
# target under test: human TRPV3 (Homo sapiens, UniProt Q8NET8)
# method summary: Calcium flux assay (FLIPR TETRA), recombinant HEK293 cells expressing TRPV3, 2-APB response
# condition label: 2-APB at its EC80

- COc1ncnc(OC)c1C(=O)Nc1nc(C(F)(F)F)c(C2(F)CCOCC2)s1: 500 to 1000 nM
- COc1ncnc(OC)c1C(=O)Nc1nc(-c2ccc(C(F)(F)F)cn2)c(S(C)(=O)=O)s1: 100 to 500 nM
- COc1ncnc(OC)c1C(=O)Nc1nc(C(F)(F)F)c(-c2ccnc(C(F)(F)F)c2)s1: 50 to 100 nM

Query IC50 for `COc1ncnc(OC)c1C(=O)Nc1nc(-c2ccc(C(F)(F)F)cn2)c(S(=O)(=O)c2ccc(C)cc2)s1`
100 to 500 nM

---

# target under test: UniProt:Q8NET8
# Sequence (Q8NET8 1-790): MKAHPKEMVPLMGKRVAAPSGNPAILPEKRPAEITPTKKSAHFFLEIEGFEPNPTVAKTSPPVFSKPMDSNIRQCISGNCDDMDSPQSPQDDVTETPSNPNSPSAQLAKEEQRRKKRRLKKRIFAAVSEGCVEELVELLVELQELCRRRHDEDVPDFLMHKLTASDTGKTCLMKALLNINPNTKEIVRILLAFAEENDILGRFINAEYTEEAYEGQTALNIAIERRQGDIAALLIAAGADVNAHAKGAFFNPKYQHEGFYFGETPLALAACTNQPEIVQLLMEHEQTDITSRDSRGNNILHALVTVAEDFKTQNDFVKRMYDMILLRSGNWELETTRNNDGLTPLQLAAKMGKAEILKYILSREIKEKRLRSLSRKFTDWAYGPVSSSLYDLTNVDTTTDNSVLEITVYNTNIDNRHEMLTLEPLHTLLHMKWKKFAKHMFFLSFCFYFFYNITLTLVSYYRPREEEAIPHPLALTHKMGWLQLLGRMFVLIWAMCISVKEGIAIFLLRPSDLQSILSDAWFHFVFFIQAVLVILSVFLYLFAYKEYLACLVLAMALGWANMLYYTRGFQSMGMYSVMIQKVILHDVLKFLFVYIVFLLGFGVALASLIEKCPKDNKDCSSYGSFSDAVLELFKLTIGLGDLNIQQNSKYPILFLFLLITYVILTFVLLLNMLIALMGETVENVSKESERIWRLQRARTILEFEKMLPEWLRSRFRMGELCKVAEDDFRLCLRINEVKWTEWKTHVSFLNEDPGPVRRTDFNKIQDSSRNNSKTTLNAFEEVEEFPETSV
# method summary: Calcium flux assay (FLIPR TETRA), recombinant HEK293 cells expressing TRPV3, 2-APB response
# condition label: 2-APB at its EC80
metric: IC50

- C#Cc1sc(NC(=O)c2c(OC)ncnc2OC)nc1C(F)(F)F [Example 11]: < 50 nM
- COc1ncnc(OC)c1C(=O)Nc1nc(C(F)(F)F)c(-c2cncc(F)c2)s1 [Example 27]: 50 to 100 nM
- COc1ncnc(OC)c1C(=O)Nc1nc(C(F)(F)F)c(-c2cnc(C#N)nc2)s1 [Example 162]: 100 to 500 nM

Find the measured IC50 of COc1ncnc(OC)c1C(=O)Nc1nc(C(F)(F)F)c(-c2cn(C)nc2C)s1 [Example 67] and report it.
50 to 100 nM

Return value of IC50 for input COc1ncnc(OC)c1C(=O)Nc1nc(C(F)(F)F)c(CN2CC[C@H](OC)C2)s1 [Example 59] , no commentary.
500 to 1000 nM

Input COc1ncnc(OC)c1C(=O)Nc1nc(C(F)(F)F)c(-c2ccc(CN3CCOCC3)cc2)s1 [Example 198] , output reported IC50.
< 50 nM

For the compound COc1ncnc(OC)c1C(=O)Nc1nc(C(F)(F)F)c(CN2CCCC2)s1 [Example 49] , report IC50.
500 to 1000 nM

Recall and state the measured IC50 for COc1ncnc(OC)c1C(=O)Nc1nc(COc2ccccc2C)cs1 [Example 179] .
100 to 500 nM

Report IC50, nothing else, for this compound: CCOc1ncnc(OCC)c1C(=O)Nc1nc(C(F)(F)F)c(CC)s1 [Example 71]
< 50 nM

Return value of IC50 for input CCn1cc(-c2sc(NC(=O)c3c(OC)ncnc3OC)nc2C(F)(F)F)cn1 [Example 177] , no commentary.
100 to 500 nM
